Measured Ki, listed per entry.
system_under_test: Serotonin 1 (5-HT1) receptor (Rattus norvegicus, UniProt P28564+P30940+P19327+P28565)
experiment_summary: Binding affinity for 5-hydroxytryptamine 1 receptor of rat prefrontal cortex
Type: tissue-based

| compound | sign_qualifier | Ki [nM] |
| --- | --- | --- |
| COc1cc(C[C@@H](C)N)c(OC)cc1I | = | 2290 |
| COc1cc(CC(C)N)c(O)cc1Br (configuration not stated) | = | 1710 |
| CCCNC(C)Cc1cc(OC)ccc1OC (configuration not stated) | = | 4100 |
| COc1ccc(OC)c(CC(C)N)c1 (racemic) | = | 1020 |
| COc1cc(CC(C)N)ccc1Br (configuration not stated) | > | 25000 |
| COc1cc(CC(C)N)c(OC)cc1I (configuration not stated) | = | 920 |
| COc1cccc(CC(C)N)c1 (racemic) | = | 2660 |
